target: MC1R (Homo sapiens); assay: Stimulation of cAMP formation in cultured human melanocytes; format: cell-based; parameters: endogenous in cells; host or cells: cultured human melanocytes; settings: cultured human melanocytes
Metric name: cAMP compared to 10 nM αMSH

N=C(N)NCCC[C@H](NC(=O)[C@@H](Cc1ccc(-c2ccccc2)cc1)NC(=O)[C@H](Cc1c[nH]cn1)NC(=O)CCCc1ccccc1)C(N)=O [LK-511, Ph(CH2)3CO-His-(D-4-Bip)-Arg-NH2]    <
N=C(N)NCCC[C@H](NC(=O)[C@@H](Cc1cccc2ccccc12)NC(=O)[C@H](Cc1c[nH]cn1)NC(=O)CCCc1ccccc1)C(=O)N[C@@H](Cc1c[nH]c2ccccc12)C(N)=O [LK-467, Ph(CH2)3CO-His-(D-1-Nal)-Arg-Trp-NH2]    >
CC(C)(C)c1ccc(C[C@@H](NC(=O)[C@H](Cc2c[nH]cn2)NC(=O)CCCc2ccccc2)C(=O)N[C@@H](CCCNC(=N)N)C(N)=O)cc1 [LK-514, Ph(CH2)3CO-His-(D-4-tBuPhe)-Arg-NH2]    <
CNC(=O)[C@H](CCCNC(=N)N)NC(=O)[C@@H](Cc1ccc(-c2ccccc2)cc1)NC(=O)[C@H](Cc1c[nH]cn1)NC(=O)CCCc1ccccc1 [LK-513, Ph(CH2)3CO-His-(D-4-Bip)-Arg-NHMe]    <

====

molecular target: MC1R (Homo sapiens, UniProt Q01726); assay: cAMP stimulation in heterologous cells expressing hMC1R; format: cell-based; set-up: expressed in transfected cells; conditions: cAMP, heterologous cells
Sequence (Q01726 whole entry): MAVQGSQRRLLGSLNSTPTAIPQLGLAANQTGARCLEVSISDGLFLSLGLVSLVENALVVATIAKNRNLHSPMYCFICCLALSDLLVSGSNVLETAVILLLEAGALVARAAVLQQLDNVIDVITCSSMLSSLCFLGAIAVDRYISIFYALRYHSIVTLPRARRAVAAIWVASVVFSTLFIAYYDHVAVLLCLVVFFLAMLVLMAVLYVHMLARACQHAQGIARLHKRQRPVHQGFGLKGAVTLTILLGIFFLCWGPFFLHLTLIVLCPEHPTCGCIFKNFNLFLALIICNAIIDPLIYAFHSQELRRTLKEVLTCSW
Metric name: HMC1R % MAX. ACTIVITY (%)

CNC(=O)[C@H](CCCNC(=N)N)NC(=O)[C@@H](Cc1ccc(-c2ccccc2)cc1)NC(=O)[C@H](Cc1c[nH]cn1)NC(=O)CCCc1ccccc1    95

I: N=C(N)NCCC[C@H](NC(=O)[C@@H](Cc1ccc(-c2ccccc2)cc1)NC(=O)[C@H](Cc1c[nH]cn1)NC(=O)CCCc1ccccc1)C(N)=O
II: N=C(N)NCCC[C@H](NC(=O)[C@@H](Cc1ccccc1)NC(=O)[C@H](Cc1c[nH]cn1)NC(=O)CCCc1ccccc1)C(=O)N[C@@H](Cc1c[nH]c2ccccc12)C(N)=O
Query: Field: lower recorded HMC1R % MAX. ACTIVITY (choose I or II ) Mark your selection by writing its label.
Response: I
